- testedOn: Influenza virus A/Panama/2007/1999 (H3N2) (Influenza A virus A/Panama/2007/1999 (H3N2))
- protocolDetails: cell-based or functional assay
Listing of entries alongside the reported Neutralizing activity (%) at 100 µg/ml.

Group 52 representative clone F083-328, Fab-PP-type antibody (Fab, V domains shown) VH: QVQLVQSGAEVKKPGSSVKLSCKASGGTLRSYALSWVRQAPGEGLEWMGGISAIFNTATYAQNVQGRVTITADESTNTFYLEVSSLRSDDTAVYYCATSGTYYVSFFDYWGQGTLVTVSS VL: DIVLTQSPSTLSASVGDRVTLTCRASQSIGSLMAWYQQQPGKPPKLLIYRASNLETGVPSRFTGSGSGTEFALTISSLQPDDVGTYYCQHFKTFSRTFGQGTKVEIK
9.6%
Group 47 representative clone F083-308, Fab-PP-type antibody (Fab, V domains shown) VH: QVQLVQSGAEVKKPGSSVKVSCKASGGIFRSHAISWVRQAPGQGLEWMGGIIAIFGTTHYAQQFQGRVTITADESTSTVYMELSTLRSEDTAVYYCARGPNYFESYFDNWGQGTLVTVSS VL: EIVLTQSPATLSLSPGERATLSCRASQTISSYLAWYQQKPGQAPRLLIYGASNRATGIPARFSGSGSGTDFTLTINSLEPEDFAVYYCQQRSSWPPITFGQGTRLEIK
1.4%

Supply recorded Neutralizing activity (%) at 100 µg/ml for Group 48 representative clone F083-389, Fab-PP-type antibody (Fab, V domains shown) VH: QVQLVQSGAEVKKPGSSVKVSCKASGDIFNKFAITWVRQAPGQGLEWMGGITALFATTSYAQKFQDRVTINWDESTTTAFMELSSLRFEDTAVYYCARGPNYYETYLDNWGQGTLVTVSS VL: EIVLTQSPTILSASVGDRVTITCRASQSISKWLAWYQQKPGKVPKLLIYMASTLESGVPSRFSGSGSGSEFTLTISSLQPGDFATYYCQQYNSYPRTFGQGTKVEINV here. -0.7%
